Values compiled from patent US20260242735A1.

Assignment: determine reported Mean % WT Binding for the given binders.
tgt: human CD33 variant Y49Q (human, UniProt P20138 18-364)
Sequence (P20138 18-364 Y49Q limits assumed): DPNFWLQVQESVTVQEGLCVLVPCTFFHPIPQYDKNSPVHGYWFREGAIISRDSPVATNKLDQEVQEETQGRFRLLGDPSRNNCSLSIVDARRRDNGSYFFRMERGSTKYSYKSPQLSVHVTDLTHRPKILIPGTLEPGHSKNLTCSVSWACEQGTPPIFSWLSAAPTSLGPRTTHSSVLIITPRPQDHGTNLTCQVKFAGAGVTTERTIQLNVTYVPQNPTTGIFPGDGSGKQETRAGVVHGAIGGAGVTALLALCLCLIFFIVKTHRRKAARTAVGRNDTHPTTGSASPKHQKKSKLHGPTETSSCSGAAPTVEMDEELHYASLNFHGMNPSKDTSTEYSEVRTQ
protocol.notes: flow cytometry, IgG on cells expressing the mutant

# binder, Mean % WT Binding
measured = [
    ("Refmab #4 (antibody, human IgG1, V domains shown, Tested in IgG format; human IgG1 Fc silent (PG-LALA)) VH: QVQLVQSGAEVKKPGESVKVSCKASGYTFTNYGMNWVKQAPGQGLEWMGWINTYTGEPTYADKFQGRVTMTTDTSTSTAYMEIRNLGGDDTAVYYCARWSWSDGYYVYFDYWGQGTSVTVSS VL: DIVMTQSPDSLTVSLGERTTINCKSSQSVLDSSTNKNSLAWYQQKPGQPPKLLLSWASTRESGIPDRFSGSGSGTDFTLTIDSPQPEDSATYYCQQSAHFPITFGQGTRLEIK", "91.9 % of WT"),
    ("Refmab #2 (antibody, human IgG1, V domains shown, Tested in IgG format; human IgG1 Fc silent (PG-LALA)) VH: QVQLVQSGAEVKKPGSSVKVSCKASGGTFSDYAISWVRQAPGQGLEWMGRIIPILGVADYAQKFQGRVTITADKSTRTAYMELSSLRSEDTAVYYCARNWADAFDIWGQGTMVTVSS VL: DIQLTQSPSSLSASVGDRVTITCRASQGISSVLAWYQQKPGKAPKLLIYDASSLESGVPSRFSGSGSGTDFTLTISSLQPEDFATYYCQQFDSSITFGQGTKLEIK", "17.4 % of WT"),
    ("Refmab #1 (antibody, human IgG1, V domains shown, Tested in IgG format; human IgG1 (Absolute Antibody hP67.6, Cat. No. Ab00283-10.0); also called hP67.6) VH: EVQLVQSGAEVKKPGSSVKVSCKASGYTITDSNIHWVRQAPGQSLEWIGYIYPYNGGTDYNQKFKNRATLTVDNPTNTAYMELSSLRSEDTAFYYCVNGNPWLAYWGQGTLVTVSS VL: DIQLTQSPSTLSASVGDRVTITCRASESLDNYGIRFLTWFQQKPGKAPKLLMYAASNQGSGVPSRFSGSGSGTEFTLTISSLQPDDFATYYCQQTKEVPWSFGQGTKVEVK", "105 % of WT"),
]

// moving on: another record for Mean % WT Binding
Using the record for Refmab #3 (antibody, human IgG1, V domains shown, Tested in IgG format; human IgG1 Fc silent (PG-LALA)) VH: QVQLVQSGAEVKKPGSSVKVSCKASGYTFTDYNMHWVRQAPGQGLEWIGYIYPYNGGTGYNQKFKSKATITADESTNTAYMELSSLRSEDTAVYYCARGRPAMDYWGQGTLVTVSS VL: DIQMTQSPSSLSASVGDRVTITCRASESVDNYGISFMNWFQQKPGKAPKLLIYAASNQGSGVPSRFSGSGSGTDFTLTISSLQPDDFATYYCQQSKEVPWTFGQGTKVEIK , state its measured Mean % WT Binding.
102 % of WT
